Test system: Human immunodeficiency virus 1
Test: Binding to 176-mer RNA from the packaging region of HIV-1 (LAI) and value of binding constant K is determined
Assay type: functional
compounds and their reported K
Respond numerically; units are M⁻¹ and should not be typed.

Field: example entries. Status: answers known.
compound="N=C(N)NCC1OC(OC2C(CO)OC(OC3C(O)C(NC(=N)N)CC(NC(=N)N)C3OC3OC(CNC(=N)N)C(O)C(O)C3NC(=N)N)C2O)C(NC(=N)N)C(O)C1O (stereo not given)" val=100000
compound=NC[C@@H]1O[C@H](O[C@H]2[C@@H](O)[C@H](O[C@@H]3[C@@H](O)[C@H](N)C[C@H](N)[C@H]3O[C@H]3O[C@H](CO)[C@@H](O)[C@H](O)[C@H]3N)O[C@@H]2CO)[C@H](N)[C@@H](O)[C@@H]1O val=43000
compound="NCC1OC(OC2C(CSCCNc3c4ccccc4nc4ccccc34)OC(OC3C(O)C(N)CC(N)C3OC3OC(CN)C(O)C(O)C3N)C2O)C(N)C(O)C1O (stereo not given)" val=16000
compound=NC[C@@H]1O[C@H](O[C@H]2[C@@H](O)[C@H](O[C@@H]3[C@@H](O)[C@H](N)C[C@H](N)[C@H]3O[C@H]3O[C@H](CN)[C@@H](O)[C@H](O)[C@H]3N)O[C@@H]2CO)[C@H](N)[C@@H](O)[C@@H]1O val=120000

# next compound below
Query: For Human immunodeficiency virus 1, provide K of NCC1O[C@H](O[C@H]2[C@@H](O)[C@H](O[C@H]3[C@H](O)[C@@H](N)C[C@@H](N)[C@@H]3O[C@H]3O[C@H](CN)[C@@H](O)[C@H](O)[C@H]3N)O[C@@H]2CSCCOCCSSCCOCCSC[C@H]2O[C@@H](O[C@H]3[C@H](O)[C@@H](N)C[C@@H](N)[C@@H]3O[C@H]3O[C@H](CN)[C@@H](O)[C@H](O)[C@H]3N)[C@H](O)[C@@H]2O[C@@H]2OC(CN)[C@H](O)[C@@H](O)[C@@H]2N)[C@H](N)[C@@H](O)[C@@H]1O (stereo not given in full) please.
Response: 3800
